Values from the DeepSol protein solubility set

Assay: soluble on expression in E. coli; label from the status in PepcDB or PDB records

INPUT_SEQUENCE	soluble on expression in E. coli
MGSDKIHHHHHHMILVLFYRTTKSHQTHSRHMSVNTTELSIEIIDIVSDRDGARLRDIVEEVDVAKSTAHKHLTTLRDSGFLVKRGEIYQVGLRFLNYGEQARSRWPGYPHIEEAIAALTERTEEECDFVAPDRGRVITIAESYHKWAKFEGTTTDGPSKEYRARTGSYYHMHATASGLAVLSTYSKSRVEDVIERWGLPARTDHTITSREELHAELEQIRERGYAVDDQGYTDGMRSIGKAVHGPEGDVIGALSVSGPTYRVDGMVLEQEVPNALRDVVDELEERLRTTN	not soluble
TKDFSWNTTFNISHNKNEIVTLDGMQTEIISGTQIRKVGKSYRTFYMIEFAGINPETGAPQFYTNDLDENGNYIKEITEKYSEANAIVLDKHAEPNVIGGLSNTLRYKWFDLNFMFSYQFGGYSYDNWAQKTEHGGNDLEANIPTYYRDSWKQPGDITKYELFIESPDVAMNKSTTTRRLHSSDFIRLKTLTFGITLPQVWTQKIGVNNVRVYASANNLWTWAAYDYYDPEAVSGGSAIWGTPPLKTVTFGLSVNF	not soluble
